This collection of values is drawn from the supplement of paper PMC5998384.

- Test system: HeLa Kyoto
- Experiment Description: solubility change mitosis vs G1/S (difference of NP-40 vs SDS log2 ratios) (log2 ratio difference); higher = more soluble in mitosis
Output class 1 for solubility change mitosis (log2) not less than -0.02; output class 0 otherwise.

INPUT: Check if solubility change mitosis (log2) >= -0.02 (inclusive). Item: MQDPNADTEWNDILRKKGILPPKESLKELEEEAEEEQRILQQSVVKTYEDMTLEELEDHEDEFNEEDERAIEMYRRRRLAEWKATKLKNKFGEVLEISGKDYVQEVTKAGEGLWVILHLYKQGIPLCALINQHLSGLARKFPDVKFIKAISTTCIPNYPDRNLPTIFVYLEGDIKAQFIGPLVFGGMNLTRDELEWKLSESGAIMTDLEENPKKPIEDVLLSSVRRSVLMKRDSDSEGD [PDCL3]
OUTPUT: class 0

INPUT: Is reported solubility change mitosis (log2) greater than or equal to -0.02 here: MAAAAAAAAAAGAAGGRGSGPGRRRHLVPGAGGEAGEGAPGGAGDYGNGLESEELEPEELLLEPEPEPEPEEEPPRPRAPPGAPGPGPGSGAPGSQEEEEEPGLVEGDPGDGAIEDPELEAIKARVREMEEEAEKLKELQNEVEKQMNMSPPPGNAGPVIMSIEEKMEADARSIYVGNVDYGATAEELEAHFHGCGSVNRVTILCDKFSGHPKGFAYIEFSDKESVRTSLALDESLFRGRQIKVIPKRTNRPGISTTDRGFPRARYRARTTNYNSSRSRFYSGFNSRPRGRVYRGRARATSWYSPY [PABPN1]
OUTPUT: class 1

INPUT: # check: solubility change mitosis (log2) of MAELTALESLIEMGFPRGRAEKALALTGNQGIEAAMDWLMEHEDDPDVDEPLETPLGHILGREPTSSEQGGLEGSGSAAGEGKPALSEEERQEQTKRMLELVAQKQREREEREEREALERERQRRRQGQELSAARQRLQEDEMRRAAEERRREKAEELAARQRVREKIERDKAERAKKYGGSVGSQPPPVAPEPGPVPSSPSQEPPTKREYDQCRIQVRLPDGTSLTQTFRAREQLAAVRLYVELHRGEELGGGQDPVQLLSGFPRRAFSEADMERPLQELGLVPSAVLIVAKKCPS [UBXN1] is greater than or equal to -0.02
OUTPUT: class 1

INPUT: Does MDPGDDWLVESLRLYQDFYAFDLSGATRVLEWIDDKGVFVAGYESLKKNEILHLKLPLRLSVKENKGLFPERDFKVRHGGFSDRSIFDLKHVPHTRLLVTSGLPGCYLQVWQVAEDSDVIKAVSTIAVHEKEESLWPRVAVFSTLAPGVLHGARLRSLQVVDLESRKTTYTSDVSDSEELSSLQVLDADTFAFCCASGRLGLVDTRQKWAPLENRSPGPGSGGERWCAEVGSWGQGPGPSIASLGSDGRLCLLDPRDLCHPVSSVQCPVSVPSPDPELLRVTWAPGLKNCLAISGFDGTVQVYDATSWDGTRSQDGTRSQVEPLFTHRGHIFLDGNGMDPAPLVTTHTWHPCRPRTLLSATNDASLHVWDWVDLCAPR [WDR73] have a reported solubility change mitosis (log2) of at least -0.02?
OUTPUT: class 0

---

- Test system: HeLa Kyoto
- Experiment Description: thermal stability score vs G1/S (z-score of summed log2 fold changes over temperatures); higher = more thermally stable than in G1/S
- Assay Context: cell cycle stage: early G1 (4.5 h after nocodazole release)
Parameter: thermal stability score
Give the figure only, with no unit attached.

INPUT: Would you mind telling me what thermal stability score value was observed for MATLRRLREAPRHLLVCEKSNFGNHKSRHRHLVQTHYYNYRVSFLIPECGILSEELKNLVMNTGPYYFVKNLPLHELITPEFISTFIKKGSCYALTYNTHIDEDNTVALLPNGKLILSLDKDTYEETGLQGHPSQFSGRKIMKFIVSIDLMELSLNLDSKKYERISWSFKEKKPLKFDFLLAWHKTGSEESTMMSYFSKYQIQEHQPKVALSTLRDLQCPVLQSSELEGTPEVSCRALELFDWLGAVFSNVDLNNEPNNFISTYCCPEPSTVVAKAYLCTITGFILPEKICLLLEHLCHYFDEPKLAPWVTLSVQGFADSPVSWEKNEHGFRKGGEHLYNFVIFNNQDYWLQMAVGANDHCPP [RPP40] ?
OUTPUT: -1.89

INPUT: Given the sequence MALPHDSNETSYLLPPNNEDWGRQTIPDFVYGQKDLMAEGIQWPRNAPGIPDALPQSPFDAALCSAWKQRVELGLFRYRLRELQTQILPGAVGFVAQLNVERGVQRRPPQTIKSVRQAFDPVQFNFNKIRPGEVLFRLHREPDLPGTLLQEDILVVINVSPLEWGHVLLVPEPARQLPQRLLPGALRAGIEAVLLSLHPGFRVGFNSLGGLASVNHLHLHGYYLAHRLPVEQAPSEPLDPGGHLHLLQDLPAPGFLFYTRGPGPDLESLISRVCRATDYLTDHEIAHNLFVTRGAPPGKTSPSSALTGVRVILWARKSSFGIKDGEAFNVALCELAGHLPVKTSQDFSSLTEAAAVALIQDCRLPPSQAEDVQAALVALMSQEEQ [GDPGP1] , what is its reported thermal stability score?
OUTPUT: -0.152
